Tmax: recorded values
Assay: Pharmacokinetic test in SD rats, intragastric administration
Type: in vivo
Details: rat, po, single intragastric administration, 25 mg/kg, plasma, read-out: Time to peak Tmax
Write it as a number; the unit h goes unstated.

The cases that follow already have their Tmax on record.
Query :: Retrieve Tmax measured for CC(C)(C)NS(=O)(=O)c1cccc(N2CCc3cnc(Nc4ccc(OCCN5CCCCC5)cc4)nc32)c1 [Compound I-5] and print it.
Result :: 1.5

Query :: Identify the reported Tmax for the following entry. CC(C)(C)NS(=O)(=O)c1cccc(N2CCc3cnc(Nc4ccc(OC5CCNCC5)cc4)nc32)c1 [Compound I-19]
Result :: 1.5

Query :: Identify measured Tmax corresponding to CC(C)(C)NS(=O)(=O)c1cccc(N2CCc3cnc(Nc4ccc(OCCN5CCNCC5)cc4)nc32)c1 [Compound I-2]
Result :: 1.5

Shift focus to the following entry.
Query :: Supply recorded Tmax for CC(C)(C)NS(=O)(=O)c1cccc(N2CCc3cnc(Nc4ccc(OCCN5CCCC5)cc4)nc32)c1 [Compound I-1] here.
Result :: 1
